tested target: human GLP-1 receptor (GLP-1R) (human, UniProt P43220 24-463)
method description: cell-based or functional assay
Numbered stars: 1 amine (or outer) side, 2 acyl side, 3 side chain; on linkers, the order of the positions; unused ones are H or OH. Square brackets hold non-standard residues; d marks the D form. Side chains are listed from the residue outwards. Ends that are not written are not given here. * marks the point of attachment. C20 diacid = O=C(O)CCCCCCCCCCCCCCCCCCC(=O)*; αMePhe(2-F) = C[C@](N)(Cc1ccccc1F)C(=O)O; γGlu = O=C(O)[C@H](CCC(=O)[*:2])N[*:1]; Desaminotyrosyl = O=C(CCc1ccc(O)cc1)*; αMeF = C[C@](N)(Cc1ccccc1)C(=O)O; AEEA = NCCOCCOCC(=O)O; Aib = CC(C)(N)C(=O)O
Give hGLP1R cAMP Rel EC50 for every item shown.
Give bare numbers, in pM.

Here's what some known entries look like.
binder	result units	hGLP1R cAMP Rel EC50
YXEGTXTSDISILLDKKAQXAFIEYLIEGGPSSGAPPPS (Y-Aib-EGT-αMeF-TSDISILLDKK((2-[2-(2-Amino-ethoxy)-ethoxy]-acetyl)2-(γ-Glu)-CO-(CH2)18-CO2H)AQ-Aib-AFIEYLIEGGPSSGAPPPS-NH2) [Example 127]	pM	145
Y[Aib]EGT[αMePhe(2-F)]TSDHSIXLDEKAQ[Aib]EFIEYLIEGGPSSGAPPPS-NH2 (not fully specified (residues 13, 17); printed as Y-Aib-EGT-αMeF(2F)-TSDHSI-αMeF-LDEK((2-[2-(2-Amino-ethoxy)-ethoxy]-acetyl)2-(γ-Glu)-CO-(CH2)18-CO2H)AQ-Aib-EFIEYLIEGGPSSGAPPPS-NH2) [Example 154]	pM	39.3
[Desaminotyrosyl][Aib]EGTFTSDYSILLDEK([AEEA-AEEA-γGlu-C20 diacid])AQQAFIEYLIEGGPSSGAPPPS-NH2 [Example 199]	pM	42.2

// each binder listed below needs its hGLP1R cAMP Rel EC50
1. YXEGTXTSDHSIXLDEKAQXTFIXYLIEGGPSSGAPPPS (Y-Aib-EGT-αMeF(2F)-TSDHSI-αMeF-LDEK((2-[2-(2-Amino-ethoxy)-ethoxy]-acetyl)2-(γ-Glu)-CO-(CH2)18-CO2H)AQ-Aib-TFI-(D-Glu)-YLIEGGPSSGAPPPS-NH2) [Example 168]
2. YXEGTXTSDESILLDKKAQXAFIEYLIEGGPSSGAPPPS (Y-Aib-EGT-αMeF-TSDESILLDKK((2-[2-(2-Amino-ethoxy)-ethoxy]-acetyl)2-(γ-Glu)-CO-(CH2)18-CO2H)AQ-Aib-AFIEYLIEGGPSSGAPPPS-NH2) [Example 130]
3. Y[Aib]EGT[αMeF]TSDYSIXLDKK([AEEA-AEEA-γGlu-C20 diacid])AQ[Aib]EFI[dE]YLIEGGPSSG-NH2 (not fully specified (residue 13); printed as Y-Aib-EGT-αMeF-TSDYSI-αMeF-LDKK((2-[2-(2-Amino-ethoxy)-ethoxy]-acetyl)2-(γ-Glu)-CO-(CH2)18-CO2H)AQ-Aib-EFI-(D-Glu)-YLIEGGPSSG-NH2) [Example 228]

1800
368
28.2

For the 2 binders below, give their hGLP1R cAMP Rel EC50 values.
1. Y[Aib]EGT[αMeF]TSDYSIXLDKK([AEEA-AEEA-γGlu-C20 diacid])AQ[Aib]TFIEYLIEGGPSSGAPPPS-NH2 (not fully specified (residue 13); printed as Y-Aib-EGT-αMeF-TSDYSI-αMeF-LDKK((2-[2-(2-Amino-ethoxy)-ethoxy]-acetyl)2-(γ-Glu)-CO-(CH2)18-CO2H)AQ-Aib-TFIEYLIEGGPSSGAPPPS-NH2) [Example 139]
2. YXEGTXTSDXSIXLDEKAQXTFIXYLIEGGPSSGAPPPS (Y-Aib-EGT-αMeF(2F)-TSD-Aib-SI-αMeF-LDEK((2-[2-(2-Amino-ethoxy)-ethoxy]-acetyl)2-(γ-Glu)-CO-(CH2)18-CO2H)AQ-Aib-TFI-(D-Glu)-YLIEGGPSSGAPPPS-NH2) [Example 160]

[41.7, 46.1]
